Origin of values: PubChem BioAssay (NCI)

This listing pairs compounds with measured growth.
Test system: OVCAR-8 ovarian
experimentalDetails: NCI-60 one-dose screen, 48 h (100 = growth as untreated, 0 = no growth, -100 = all killed)
statedConditions: 10 µM unless noted
About 83,000 compounds went through this panel and 20% of them were active in at least one assay; those are over-represented in the sample as a whole.
Reply with just the number (in %).

Sample answers from the record:
[[record]]
compound = "O=C(Nc1ccc(Cl)cc1)Nc1nc2ccc([N+](=O)[O-])cc2s1"
endpointname = "growth"
readoutvalue = 6.03

[[record]]
compound = "CCOC(=O)CC(=O)CSC1=NC2C(NN1)N(C)C(=O)N2C (centres undefined)"
endpointname = "growth"
readoutvalue = 66.8

[[record]]
compound = "COc1ccc(N2CCN(C(=O)CSc3ccc(-c4nc5cc(C)c(C)cc5[nH]4)cn3)CC2)cc1"
endpointname = "growth"
readoutvalue = 56.4

[[record]]
compound = "Cc1ccc(NC(=O)c2ccc(CN3CCN(C)CC3)c(C(F)(F)F)c2)cc1Oc1ccc(-c2[nH]nc3ncnc(N)c23)cc1"
endpointname = "growth"
readoutvalue = 94.5

[[record]]
compound = "COc1ccc2c(c1)c(-c1nnc(N)nc1-c1cn(C)c3ccccc13)cn2C"
endpointname = "growth"
readoutvalue = 103


Please tell me: growth of NC(=O)N1N=C(c2cc3ccccc3oc2=O)CC1c1cn(-c2ccccc2)nc1-c1ccc(Cl)cc1 (centres undefined) , system OVCAR-8 ovarian?
37.1

Please tell me: growth of CC(C)C[C@H]1C(=O)O[C@H](C(C)C)C(=O)N(C)[C@@H](C(C)C)C(=O)O[C@H](C(C)C)C(=O)N(C)[C@@H](C(C)C)C(=O)O[C@H](C(C)C)C(=O)N1C , system OVCAR-8 ovarian?
16

Please tell me: growth of O=C1c2c(c3c4cccnc4[nH]c3c3ccc4ccccc4c23)C(=O)N1CCN1CCOCC1 , system OVCAR-8 ovarian?
47.2

Please tell me: growth of O=C1CC2(CCOCC2)Oc2ncccc21 , system OVCAR-8 ovarian?
90.9
